study system: T1, T3 DNA ligase (bacteriophage T3, UniProt P07717 1-346)
T1 sequence: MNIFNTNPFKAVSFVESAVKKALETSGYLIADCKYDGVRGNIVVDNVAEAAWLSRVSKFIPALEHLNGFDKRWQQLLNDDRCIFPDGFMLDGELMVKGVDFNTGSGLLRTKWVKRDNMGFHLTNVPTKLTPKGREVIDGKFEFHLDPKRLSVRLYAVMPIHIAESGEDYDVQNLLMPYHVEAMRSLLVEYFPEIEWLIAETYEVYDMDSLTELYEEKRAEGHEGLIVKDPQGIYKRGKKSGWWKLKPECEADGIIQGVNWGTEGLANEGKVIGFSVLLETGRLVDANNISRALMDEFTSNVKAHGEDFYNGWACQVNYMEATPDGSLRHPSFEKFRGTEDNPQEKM
experiment: fluorescence anisotropy; 10 mM MgCl2, 1 mM ATP; T4 DNA ligase reaction buffer: 50 mM Tris-HCl pH 7.5 (25°C), 1 mM ATP, 10 mM MgCl2; 750 pM-4 nM DNA; anisotropy temperature not stated
condition context: label: 3'-FAM on one strand; blunt
measure: pKd
Numbers only, as −log10 of the molar value.

Q: Name the recorded pKd of the item Anisotropy 24mer dsDNA (dsDNA) DNA 1: GATCGTCCTTGGTGATCATGCATC DNA 2: GATGCATGATCACCAAGGACGATC in your answer.
Result: 5.19
